target: SARS-COV-2 RBD extracellular domain expressed with a C-terminal myc-myc-hexahistidine tag (SARS-COV-2 RBD-mmH) (SARS-CoV-2); assay: SPR Biacore, mAb captured on anti-hFc, RBD-mmH analyte, 37 C
Reported values of log10(koff) for individual entries
Heads up, the numbers here are log10 of koff in s⁻¹ units.

binder	log10(koff)
mAb15159 (antibody, V domains shown) VH: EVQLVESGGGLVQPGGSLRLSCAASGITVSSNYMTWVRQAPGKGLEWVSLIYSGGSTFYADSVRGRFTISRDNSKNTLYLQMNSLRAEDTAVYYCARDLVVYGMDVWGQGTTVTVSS VL: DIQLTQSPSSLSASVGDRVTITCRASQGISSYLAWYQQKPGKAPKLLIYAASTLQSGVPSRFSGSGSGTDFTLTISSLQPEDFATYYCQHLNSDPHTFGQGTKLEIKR	-3.75
mAb14280 (antibody, V domains shown) VH: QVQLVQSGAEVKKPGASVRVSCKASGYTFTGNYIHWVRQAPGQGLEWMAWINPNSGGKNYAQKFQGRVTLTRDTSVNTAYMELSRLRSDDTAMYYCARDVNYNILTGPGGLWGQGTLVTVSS VL: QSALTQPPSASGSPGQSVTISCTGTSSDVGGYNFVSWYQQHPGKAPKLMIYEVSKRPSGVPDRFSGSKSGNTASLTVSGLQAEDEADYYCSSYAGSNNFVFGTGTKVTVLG	-1.61
mAb14294 (antibody, V domains shown) VH: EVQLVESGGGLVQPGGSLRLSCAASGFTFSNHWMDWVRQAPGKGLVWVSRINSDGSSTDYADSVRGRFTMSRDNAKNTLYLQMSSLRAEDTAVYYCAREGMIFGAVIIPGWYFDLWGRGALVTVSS VL: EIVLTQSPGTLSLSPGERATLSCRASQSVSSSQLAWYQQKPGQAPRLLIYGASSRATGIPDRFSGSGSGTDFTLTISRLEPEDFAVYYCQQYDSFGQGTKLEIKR	-3.23
mAb14284 (antibody, V domains shown) VH: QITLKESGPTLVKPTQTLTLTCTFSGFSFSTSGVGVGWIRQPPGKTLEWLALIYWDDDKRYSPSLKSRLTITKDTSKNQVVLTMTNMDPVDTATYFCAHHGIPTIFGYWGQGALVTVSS VL: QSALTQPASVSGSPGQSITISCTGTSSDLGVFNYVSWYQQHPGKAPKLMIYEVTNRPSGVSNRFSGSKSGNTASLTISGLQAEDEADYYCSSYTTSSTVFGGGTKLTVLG	-3.22

// sample mAb14286 (antibody, V domains shown) VH: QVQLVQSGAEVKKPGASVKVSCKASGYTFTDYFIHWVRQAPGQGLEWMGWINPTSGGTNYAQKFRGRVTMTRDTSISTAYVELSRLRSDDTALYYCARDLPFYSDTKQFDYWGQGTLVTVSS VL: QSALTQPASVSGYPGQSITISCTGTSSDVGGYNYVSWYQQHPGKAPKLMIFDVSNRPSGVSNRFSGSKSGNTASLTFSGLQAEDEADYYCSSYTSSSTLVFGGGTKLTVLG , its log10(koff) was -1.98

Source: patent US20260069689A1
